- ASSAY_OVERVIEW: yeast display, Sf9 membrane polyspecificity reagent, FACS + sequencing; frameworks hold sequencing errors
READOUT_TYPE: polyreactivity (PSR sort gate)

Here's what some known entries look like.
>>> test_result("QVQLVESAGGLVQAGGSLRLSCAATGLIFKYYAMVWYRQAPGKEREMVATITRGGGSTYYADSVKGRFTISRDNAKNTVYFQMNSLKPEDTAVYYCAKRTSWKYGYWGQGTQVTVSS")
"high polyreactivity"
>>> test_result("QVQHVESGGGLVQAGGSLRLSCAASGSILRPNVMGWYRQAPGKDRELVARISSRGVNTYYADSVKGRFTISRDNAKNTVYLQMNSLKPEDTAVYYCNARRAQYYWNRSPKYDYWGQGTQVTVSP")
"high polyreactivity"
>>> test_result("QVQLVESGGGLVQAGGSLRLSCAASGFTFWDYAMGWYRQAPGKERELVATISVGGGSTYYADSVKGRFTISRDNSKNSVYLQMNSLKPEDTAVYYCAADRSYYLAGYDYWGQGTQVPVSS")
"low polyreactivity"
>>> test_result("QVQLVESGGGLVQAGGSLRLSCAASGSIFYPYAMGWYRQAPGKERELVAAITWSGGETYYADSVKGRFTISRDNAKNTVYLQMNSLKPEDTAVYYCAAEWNVSPYDYWGQGTQVTVSS")
"low polyreactivity"
>>> test_result("QVQLQESGDGLVQAGGSLRLSCAASGNIYDADIMGWYRQAPGKERELVTSITDGGSTNYADSVKGRFTISRDNAKNTVYLQMNSLKPEDTAVYYCAAIAYPDIPTSFDYNSDYSYWGQGTQVTVSS")
"low polyreactivity"

Given the sequence QVQHVESGGGLVQAGGSLRLSCAASGRIFYSNVMGWYRQAPGKERELVAAISGRTGGTYYADSEKGRFTISRDNAKNTVYLQMNSMKPEDTAVYFCAARVIYYYGSGPYDYWGQGTQVTVSS , what is its reported polyreactivity (PSR sort gate)? low polyreactivity

Which polyreactivity (PSR sort gate) value belongs to QVQLVESGVGLVQAGGSLRLSCSASGSIFDYYAMGWYRQAHGKERELVAAISWRGGRTYYADSVKGRFTISRDNAKNTVYLQMNSLNPVDTAVYYCNTQEPYYESDYWGLGTQVTVSS ? high polyreactivity

Returns the measured polyreactivity (PSR sort gate) for the input sequence. Input: QVQLVESGGGLVQAGGSLRLSCAASGFTFWRNTMGWSRQAPGKERELVAAIDRSGSSTYYADSEKGRFTISRDNATNTVYLQMNSLKPEDTAVYYCAAAHTYFTPYGDYWGQGTQVTVSS low polyreactivity
